Test system: MDA-MB-435
Protocol notes: NCI tumour cell line growth inhibition, 48 h

>  <Molecule>
CC1=CC(=O)N(c2cccc3c(N4C(=O)C=C(C)C4=O)cccc23)C1=O

>  <Modifier>
>

>  <TGI / µM>
37.1

$$$$
>  <Molecule>
COC(=O)C1C(C(=O)O)C2(c3ccccc3)C(=O)C1(c1ccccc1)C(c1ccccc1)=C2c1ccccc1 (centres undefined)

>  <Modifier>
=

>  <TGI / µM>
58.9

$$$$
>  <Molecule>
C[C@@H]1S[C@H](c2c(F)cccc2Cl)n2c1nc1ccccc12

>  <Modifier>
=

>  <TGI / µM>
25.1

$$$$
>  <Molecule>
c1ccc(-c2[nH]ncc2-c2ccnc(-c3ccc(OCCN4CCOCC4)cc3)c2)nc1

>  <Modifier>
>

>  <TGI / µM>
25

$$$$
>  <Molecule>
CCCCN=NNc1cn(C2OC(CO)C(O)C2O)c(=O)[nH]c1=O (centres undefined)

>  <Modifier>
>

>  <TGI / µM>
100

$$$$
>  <Molecule>
O=C(Oc1ccccc1)N(c1ccccc1)c1ccccc1

>  <Modifier>
=

>  <TGI / µM>
75.9

$$$$
>  <Molecule>
C[C@]12CC[C@H](O[C@@H]3O[C@H](CO[C@@H]4O[C@H](CO)[C@@H](O)[C@H](O)[C@H]4O)[C@@H](O)[C@H](O)[C@H]3O)C[C@@H]1CC[C@@H]1[C@@H]2CC[C@]2(C)[C@@H](C3=CC(=O)OC3)CC[C@]12O

>  <Modifier>
>

>  <TGI / µM>
100

$$$$
>  <Molecule>
O=C(OCc1ccccc1)C(Cc1ccc(OCc2ccccc2)cn1)NC(=O)C(F)(F)F (centres undefined)

>  <Modifier>
>

>  <TGI / µM>
100

$$$$
>  <Molecule>
Cc1ccc(C[As+](c2ccccc2)(c2ccccc2)c2ccccc2)cc1

>  <Modifier>
=

>  <TGI / µM>
6.34

$$$$
